- ASSAY_TARGET: ZIKV NS2B-NS3pro (Zika virus, UniProt A0A024B7W1, C1582S/C1645S/R1467A/R1531G)
- EXPERIMENT: ZIKV NS2B-NS3pro inhibitory assay with fluorogenic substrate Bz-Nle-Lys-Lys-Arg-AMC
- Assay type: biochemical
- ASSAY_CONTEXT: one value per independent assay (two curves per compound); read-out: IC50 of the individual curves for NS2B-NS3pro inhibitors (Figure 3)
Catalogue of pIC50 readings, one per entry.
Scale for pIC50: -log10 of concentration given in mol/L; no unit attached.

Problem: Note down pIC50 recorded for COc1cccc2nc(C(=O)c3ccccc3NS(=O)(=O)c3ccc(F)c(C)c3)[nH]c12
Solution: 5.22

Problem: Note down pIC50 recorded for Cc1cc(C(=O)c2ccccc2NS(=O)(=O)c2ccc(F)cc2)nn1-c1ccccc1
Solution: 4.54
